- Test system: MDA-MB-231
- protocol.text: NCI tumour cell line growth inhibition, 48 h
Activity calls are given as the source filed them. No stated cut-off is given here; in the data, active = GI50 up to about 1.1 µM and inactive = higher.
property.label: GI50

Solved entries:
>>> df
                                   compound   tested_on               result
0  C(=C\Nc1ccc(-c2ccccc2)cc1)/C=N/c1ccc(-c2ccccc2)cc1  MDA-MB-231   79.8 µM (inactive)
1  COCOC1/C=C/CCCCC(=O)C(C)C#CC1 (stereo unspecified)  MDA-MB-231   4.73 µM (inactive)
2  CN1CC(c2ccccc2)C(O)(C2(c3ccccc3)CN(C)CC(c3ccccc3)C2=O)C(c2ccccc2)C1 (stereo unspecified)  MDA-MB-231  > 100 µM (inactive)
3  CN(C)CCNC(=O)c1cccc2c(NCCN(C)C)c3ccccc3nc12  MDA-MB-231      2 µM (inactive)
4  COc1ccc2c(-c3csc(-c4c[nH]c5ccccc45)n3)c[nH]c2c1  MDA-MB-231    5.2 µM (inactive)

Here's the next entry for you.
Entry Cc1cc(=O)n2nc(CSc3nnc(N)s3)sc2n1 — recorded GI50 = > 100 µM (inactive)
